Reported solubility kinetic values for a set of molecules
- ASSAY NOTES: physchem
- STUDY CONDITIONS: pH 7.4, aqueous buffer, kinetic from dmso stock
RECORDED METRIC: solubility kinetic (µM)

>>> df
                                   molecule     recorded_metric  measure_unit  value
0  COc1ccc(-c2ccc(C(=O)N3C[C@H]4[C@@H]([C@H]3C(=O)N[C@H](C#N)C[C@@H]3CCNC3=O)C4(C)C)c(Cl)c2)cc1 [22e]  solubility kinetic            µM     97
1  COc1cccc(-c2ccc(C(=O)N[C@@H](CC(C)C)C(=O)N[C@H](C#N)C[C@@H]3CCNC3=O)c(Cl)c2)c1 [18n]  solubility kinetic            µM     34
2  COc1cccc(-c2ccc(C(=O)N3C[C@H]4[C@@H]([C@H]3C(=O)N[C@H](C#N)C[C@@H]3CCNC3=O)C4(C)C)c(Cl)c2)c1 [22f]  solubility kinetic            µM     82

* * *

- TESTED TARGET: recombinant M^Pro (Severe acute respiratory syndrome coronavirus 2)
- ASSAY NOTES: SARS-CoV-2 Mpro screening and IC50 determination (QS1 fluorogenic substrate, Drag assay)
- Assay type: biochemical
- STUDY CONDITIONS: M^Pro IC50 (μM), Table 2
RECORDED METRIC: IC50

                                smiles_data  recorded_metric     value
0  COc1ccc(-c2ccc(C(=O)N[C@@H](CC(C)C)C(=O)N[C@H](C#N)C[C@@H]3CCNC3=O)cc2)cc1OC             IC50  0.859 µM
1  COc1cccc(-c2ccc(C(=O)N[C@@H](CC(C)C)C(=O)N[C@H](C#N)C[C@@H]3CCNC3=O)cc2)c1             IC50  0.786 µM
2  CC(C)C[C@H](NC(=O)c1ccc(-c2cccc3nn(C)cc23)cc1)C(=O)N[C@H](C#N)C[C@@H]1CCNC1=O             IC50  0.622 µM

* * *

- ASSAY NOTES: physchem
- STUDY CONDITIONS: pH 7.4
Recorded measurements of logD, one per entry
RECORDED METRIC: logD

                                   molecule  value
0  COc1ccc(-c2ccc(C(=O)N3C[C@H]4[C@@H]([C@H]3C(=O)N[C@H](C#N)C[C@@H]3CCNC3=O)C4(C)C)c(Cl)c2)cc1 [22e]    3.4
1  COc1cccc(-c2ccc(C(=O)N3C[C@H]4[C@@H]([C@H]3C(=O)N[C@H](C#N)C[C@@H]3CCNC3=O)C4(C)C)c(Cl)c2)c1 [22f]    3.5
2  COc1cccc(-c2ccc(C(=O)N[C@@H](CC(C)C)C(=O)N[C@H](C#N)C[C@@H]3CCNC3=O)c(Cl)c2)c1 [18n]    3.1

* * *

- TESTED TARGET: recombinant M^Pro (Severe acute respiratory syndrome coronavirus 2)
- ASSAY NOTES: SARS-CoV-2 Mpro screening and IC50 determination (QS1 fluorogenic substrate, Drag assay)
- Assay type: biochemical
- STUDY CONDITIONS: M^Pro IC50 (μM), recombinant M^Pro, 20 μM QS1 substrate; Table 3
Reported IC50 values are given for each entry in this list.
RECORDED METRIC: IC50 (µM)

                                   compound  measure_unit  value
0  COc1ccc(-c2ccc(C(=O)N[C@@H](CC(C)C)C(=O)N[C@H](C#N)C[C@@H]3CCNC3=O)c(C(F)(F)F)c2)cc1 [18m]            µM  0.096
1  CC(C)C[C@H](NC(=O)c1ccc(-c2cccc3nn(C)cc23)cc1Cl)C(=O)N[C@H](C#N)C[C@@H]1CCNC1=O [18p]            µM  0.068
2  COc1ccc(-c2ccc(C(=O)N[C@@H](CC(C)C)C(=O)N[C@H](C#N)C[C@@H]3CCNC3=O)c(F)c2)cc1 [18b]            µM  0.178
3  CC(C)C[C@H](NC(=O)c1ccc(-c2ccc3cnn(C)c3c2)cc1Cl)C(=O)N[C@H](C#N)C[C@@H]1CCNC1=O [18q]            µM  0.053
4  COc1ccc(-c2ccc(C(=O)N[C@@H](CC(C)C)C(=O)N[C@H](C#N)C[C@@H]3CCNC3=O)c(C)c2)cc1 [18k]            µM  0.085
5  COc1ccc(-c2ccc(C(=O)N[C@@H](CC(C)C)C(=O)N[C@H](C#N)C[C@@H]3CCNC3=O)c(Cl)c2)cc1 [18r]            µM  0.045
6  CC(C)C[C@H](NC(=O)c1ccc(-c2cccc3nn(C)cc23)cc1F)C(=O)N[C@H](C#N)C[C@@H]1CCNC1=O [18a]            µM  0.162

* * *

Below, each of the compounds is paired with its reported IC50 value.
- TESTED TARGET: recombinant M^Pro (Severe acute respiratory syndrome coronavirus 2, UniProt P0DTD1)
- ASSAY NOTES: SARS-CoV-2 Mpro screening and IC50 determination (QS1 fluorogenic substrate, Drag assay)
- Format: biochemical
- STUDY CONDITIONS: IC50 (μM) M^Pro, recombinant M^Pro, 20 μM QS1 substrate; Table 5
RECORDED METRIC: IC50 (µM)

>>> print(df.to_string())
                                   compound  value
0  COc1ccc(-c2ccc(C(=O)N[C@@H](CC3CCCCC3)C(=O)N[C@H](C#N)C[C@@H]3CCNC3=O)c(Cl)c2)cc1 [23c]  0.077
1  COc1cccc(-c2ccc(C(=O)N3C[C@H]4[C@@H]([C@H]3C(=O)N[C@H](C#N)C[C@@H]3CCNC3=O)C4(C)C)c(Cl)c2)c1 [22f]   0.12
2  COc1ccc(-c2ccc(C(=O)N3C[C@H]4[C@@H]([C@H]3C(=O)N[C@H](C#N)C[C@@H]3CCNC3=O)C4(C)C)c(Cl)c2)cc1 [22e]  0.087
3  COc1cccc(-c2ccc(C(=O)N[C@@H](CC3CCCCC3)C(=O)N[C@H](C#N)C[C@@H]3CCNC3=O)c(F)c2)c1 [23b]  0.691
4  COc1ccc(-c2ccc(C(=O)N[C@@H](CC3CCCCC3)C(=O)N[C@H](C#N)C[C@@H]3CCNC3=O)c(F)c2)cc1 [23a]  0.807
5  COc1ccc(-c2ccc(C(=O)N3C[C@@H]4CCC[C@@H]4[C@H]3C(=O)N[C@H](C#N)C[C@@H]3CCNC3=O)c(Cl)c2)cc1 [22k]  0.743
6  COc1cccc(-c2ccc(C(=O)N[C@@H](CC3CCCCC3)C(=O)N[C@H](C#N)C[C@@H]3CCNC3=O)c(Cl)c2)c1 [23d]  0.094
7  COc1cccc(-c2ccc(C(=O)N3C[C@@H]4CCC[C@@H]4[C@H]3C(=O)N[C@H](C#N)C[C@@H]3CCNC3=O)c(Cl)c2)c1 [22l]   1.06

* * *

- TESTED TARGET: recombinant M^Pro (Severe acute respiratory syndrome coronavirus 2, UniProt P0DTD1)
- ASSAY NOTES: SARS-CoV-2 Mpro screening and IC50 determination (QS1 fluorogenic substrate, Drag assay)
- Type: biochemical
- STUDY CONDITIONS: M^Pro IC50 (μM), recombinant M^Pro, 20 μM QS1 substrate; Table 3
RECORDED METRIC: IC50 (µM)

                                   molecule  measure_unit  value
0  CC(C)C[C@H](NC(=O)c1ccc(-c2ccc3c(cnn3C)c2)cc1F)C(=O)N[C@H](C#N)C[C@@H]1CCNC1=O [18c]            µM  0.307
1  CC(C)C[C@H](NC(=O)c1ccc(-c2ccc3c(cnn3C)c2)cc1Cl)C(=O)N[C@H](C#N)C[C@@H]1CCNC1=O [18o]            µM  0.052
2  COc1cccc(-c2ccc(C(=O)N[C@@H](CC(C)C)C(=O)N[C@H](C#N)C[C@@H]3CCNC3=O)c(Cl)c2)c1 [18n]            µM  0.049

* * *

- TESTED TARGET: Human Recombinant Cathepsin B (Homo sapiens, UniProt P07858)
- ASSAY NOTES: Cathepsin selectivity screening, Cat B (Z-Phe-Arg-AMC)
- Assay type: biochemical
- STUDY CONDITIONS: Z-Phe-Arg-AMC substrate; Table 5; read-out: IC50 (μM) CatB
Quick reference: IC50 of the listed items.
RECORDED METRIC: IC50 (µM)

                                   compound  value_modifier  value
0  COc1cccc(-c2ccc(C(=O)N[C@@H](CC3CCCCC3)C(=O)N[C@H](C#N)C[C@@H]3CCNC3=O)cc2)c1 [12k]               >     10
1  COc1cccc(-c2ccc(C(=O)N[C@@H](CC3CCCCC3)C(=O)N[C@H](C#N)C[C@@H]3CCNC3=O)c(F)c2)c1 [23b]               =  0.238
2  COc1ccc(-c2ccc(C(=O)N3C[C@H]4[C@@H]([C@H]3C(=O)N[C@H](C#N)C[C@@H]3CCNC3=O)C4(C)C)c(Cl)c2)cc1 [22e]               >     10
3  COc1cccc(-c2ccc(C(=O)N[C@@H](CC(C)C)C(=O)N[C@H](C#N)C[C@@H]3CCNC3=O)c(Cl)c2)c1 [18n]               =  0.115
